Data provenance: the supplement of paper PMC8967900

- Tested on: HPB-ALL
- Assay Overview: selective drug sensitivity score (sDSS, relative to normal bone marrow) (sDSS (score)); higher = more potent and effective on the cell line relative to normal bone marrow cells;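 note: ALL cell lines in 384-well plates, five doses spanning 10,000-fold, each plate scaled between vehicle and 100 µmol/L benzalkonium chloride controls, sDSS an adapted area-under-curve metric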
- Conditions: 72 h

[
  {
    "Compound": "CNC(=O)c1ccccc1Nc1nc(Nc2ccc3c(c2OC)CCC[C@H](N2CCN(CCO)CC2)C3)ncc1Cl (top concentration 5000 nM)",
    "selective drug sensitivity score": 1.66
  },
  {
    "Compound": "Cn1cc(C2=C(c3cn(C4CCN(Cc5ccccn5)CC4)c4ccccc34)C(=O)NC2=O)c2ccccc21 [Enzastaurin] (top concentration 10000 nM)",
    "selective drug sensitivity score": -0.24
  },
  {
    "Compound": "CC(=O)c1cnc2ccc(-c3cc(Cl)c(O)c(Cl)c3)nc2c1N[C@H]1CC[C@H](CN(C)C)CC1 [OTS167] (top concentration 1000 nM)",
    "selective drug sensitivity score": -0.42
  },
  {
    "Compound": "CC(C)(C)c1cc(NC(=O)Nc2ccc(-c3cn4c(n3)sc3cc(OCCN5CCOCC5)ccc34)cc2)no1 [Quizartinib] (top concentration 1000 nM)",
    "selective drug sensitivity score": 5.18
  },
  {
    "Compound": "Cc1sc2c(c1C)C(c1ccc(Cl)cc1)=N[C@@H](CC(=O)OC(C)(C)C)c1nnc(C)n1-2 [JQ1] (top concentration 10000 nM)",
    "selective drug sensitivity score": 1.32
  },
  {
    "Compound": "O=C(NC[C@H](O)CN1CCc2ccccc2C1)c1cc(NC2COC2)ncn1 (top concentration 10000 nM)",
    "selective drug sensitivity score": 3.44
  },
  {
    "Compound": "C[C@H](Nc1ncnc2[nH]cnc12)c1cc2ccc(F)cc2nc1-c1ccccn1 [AMG319] (top concentration 1000 nM)",
    "selective drug sensitivity score": -1.42
  },
  {
    "Compound": "O=c1[nH]c(=O)n([C@H]2C[C@H](O)[C@@H](CO)O2)cc1F [Floxuridine] (top concentration 10000 nM)",
    "selective drug sensitivity score": 1.12
  },
  {
    "Compound": "CCCS(=O)(=O)Nc1ccc(F)c(C(=O)c2c[nH]c3ncc(-c4ccc(Cl)cc4)cc23)c1F [Vemurafenib] (top concentration 10000 nM)",
    "selective drug sensitivity score": -0.44
  },
  {
    "Compound": "Nc1nccc(-c2c(-c3ccc(F)cc3)ncn2C2CCCCC2)n1 (top concentration 10000 nM)",
    "selective drug sensitivity score": 0.4
  },
  {
    "Compound": "C=CCn1c(=O)c2cnc(Nc3ccc(N4CCN(C)CC4)cc3)nc2n1-c1cccc(C(C)(C)O)n1 [AZD1775] (top concentration 10000 nM)",
    "selective drug sensitivity score": 9.44
  },
  {
    "Compound": "CN(C)Cc1c(C(=O)NCCOc2ccc(C(=O)NO)cc2)oc2ccccc12 [Abexinostat] (top concentration 10000 nM)",
    "selective drug sensitivity score": 6.76
  },
  {
    "Compound": "Cc1cccc(CC(=O)N2CCc3c2ccc(-c2cn(C)c4ncnc(N)c24)c3F)n1 (top concentration 2500 nM)",
    "selective drug sensitivity score": -0.68
  }
]

---

Reported selective drug sensitivity score values for a set of compounds
- Tested on: NALL-1
- Assay Overview: selective drug sensitivity score (sDSS, relative to normal bone marrow) (sDSS (score)); higher = more potent and effective on the cell line relative to normal bone marrow cells
- Conditions: 72 h

[
  {
    "Compound": "S=C(NCc1ccc2c(c1)OCO2)N1CCN(c2ncnc3c2oc2ccccc23)CC1 [Amuvatinib] (top concentration 10000 nM)",
    "selective drug sensitivity score": 2.16
  },
  {
    "Compound": "CC[C@]1(O)C[C@H]2CN(CCc3c([nH]c4ccccc34)[C@@](C(=O)OC)(c3cc4c(cc3OC)N(C=O)[C@H]3[C@@](O)(C(=O)OC)[C@H](OC(C)=O)[C@]5(CC)C=CCN6CC[C@]43[C@@H]65)C2)C1 [Vincristine] (top concentration 1000 nM)",
    "selective drug sensitivity score": -0.88
  },
  {
    "Compound": "Cc1cnc(-c2ccccc2C(C)C)nc1NCc1ccc(-n2ccnn2)cc1 [ML323] (top concentration 10000 nM)",
    "selective drug sensitivity score": 0.14
  }
]

---

- Test system: NALL-1
- Assay Overview: selective drug sensitivity score (sDSS, relative to normal bone marrow) (sDSS (score)); higher = more potent and effective on the cell line relative to normal bone marrow cells
- Conditions: 72 h
Reported selective drug sensitivity score values for a set of molecules
Assay Endpoint: selective drug sensitivity score

[
  {
    "Molecule": "CNC(=O)c1ccccc1Nc1nc(Nc2ccc3c(c2OC)CCC[C@H](N2CCN(CCO)CC2)C3)ncc1Cl (top concentration 5000 nM)",
    "System": "NALL-1",
    "Reported Result": -3.34
  },
  {
    "Molecule": "O=C(CCNC(=O)c1ccc(OC(F)(F)F)cc1)N[C@@H]1CCCc2ccccc21 [ML390] (top concentration 50000 nM)",
    "System": "NALL-1",
    "Reported Result": -1.2
  },
  {
    "Molecule": "CC(C)N(C[C@H]1O[C@@H](n2cnc3c(N)ncnc32)[C@H](O)[C@@H]1O)[C@H]1C[C@@H](CCc2nc3cc(C(C)(C)C)ccc3[nH]2)C1 [Pinometostat] (top concentration 1000 nM)",
    "System": "NALL-1",
    "Reported Result": 0
  },
  {
    "Molecule": "COc1cc2nccc(Oc3ccc(NC(=O)Nc4cc(C)on4)c(Cl)c3)c2cc1OC [Tivozanib] (top concentration 10000 nM)",
    "System": "NALL-1",
    "Reported Result": -1.74
  },
  {
    "Molecule": "CN(C)C(=N)NC(=N)N [Metformin] (top concentration 100000 nM)",
    "System": "NALL-1",
    "Reported Result": -0.02
  },
  {
    "Molecule": "NC(=O)c1cccc2cn(-c3ccc(C4CCCNC4)cc3)nc12 (stereo not drawn) [Niraparib] (top concentration 10000 nM)",
    "System": "NALL-1",
    "Reported Result": 4.08
  },
  {
    "Molecule": "CC[C@H](NC(=O)[C@H](C)NC)C(=O)N1C[C@@H](O)C[C@H]1Cc1c(-c2[nH]c3cc(F)ccc3c2C[C@@H]2C[C@H](O)CN2C(=O)[C@H](CC)NC(=O)[C@H](C)NC)[nH]c2cc(F)ccc12 [Birinapant] (top concentration 1000 nM)",
    "System": "NALL-1",
    "Reported Result": 6.9
  },
  {
    "Molecule": "CCc1cncnc1N1CCN(Cc2nc3cc(C(F)(F)F)ccc3[nH]2)CC1 (top concentration 10000 nM)",
    "System": "NALL-1",
    "Reported Result": 8.66
  },
  {
    "Molecule": "Cc1cc(Nc2cc(N3CCN(C)CC3)nc(Sc3ccc(NC(=O)C4CC4)cc3)n2)n[nH]1 [Tozasertib] (top concentration 10000 nM)",
    "System": "NALL-1",
    "Reported Result": 19.8
  },
  {
    "Molecule": "Nc1nccc(-c2c(-c3ccc(F)cc3)ncn2C2CCCCC2)n1 (top concentration 10000 nM)",
    "System": "NALL-1",
    "Reported Result": 0.1
  },
  {
    "Molecule": "CC(C)(O)CNc1nc(Nc2ccnc(C(F)(F)F)c2)nc(-c2cccc(C(F)(F)F)n2)n1 [Enasidenib] (top concentration 10000 nM)",
    "System": "NALL-1",
    "Reported Result": -0.8
  },
  {
    "Molecule": "Cc1ccc(C(=O)Nc2ccc(CN3CCN(C)CC3)c(C(F)(F)F)c2)cc1C#Cc1cnc2cccnn12 [Ponatinib] (top concentration 1000 nM)",
    "System": "NALL-1",
    "Reported Result": -3.08
  },
  {
    "Molecule": "FC(F)c1nc2ccccc2n1-c1nc(N2CCOCC2)nc(N2CCOCC2)n1 [ZSTK474] (top concentration 10000 nM)",
    "System": "NALL-1",
    "Reported Result": 1.96
  }
]

---

- Tested on: P12-ICHIKAWA
- Assay Overview: selective drug sensitivity score (sDSS, relative to normal bone marrow) (sDSS (score)); higher = more potent and effective on the cell line relative to normal bone marrow cells
- Conditions: 72 h
Assay Endpoint: selective drug sensitivity score

[
  {
    "Molecule": "COc1cccc2c1c(O)c(C(=O)N(C)c1ccc(C(F)(F)F)cc1)c(=O)n2C [Tasquinimod] (top concentration 10000 nM)",
    "System": "P12-ICHIKAWA",
    "Assay Endpoint": "selective drug sensitivity score",
    "Reported Result": -0.42
  },
  {
    "Molecule": "CC[C@@H]1C(=O)N(C)c2cnc(Nc3ccc(C(=O)N[C@H]4CC[C@H](N5CCN(CC6CC6)CC5)CC4)cc3OC)nc2N1C(C)C [Volasertib] (top concentration 1000 nM)",
    "System": "P12-ICHIKAWA",
    "Assay Endpoint": "selective drug sensitivity score",
    "Reported Result": 11.5
  },
  {
    "Molecule": "CCCS(=O)(=O)Nc1ccc(F)c(C(=O)c2c[nH]c3ncc(-c4ccc(Cl)cc4)cc23)c1F [Vemurafenib] (top concentration 10000 nM)",
    "System": "P12-ICHIKAWA",
    "Assay Endpoint": "selective drug sensitivity score",
    "Reported Result": 4.16
  },
  {
    "Molecule": "NC(=O)c1cccc2cn(-c3ccc(C4CCCNC4)cc3)nc12 (stereo unspecified) [Niraparib] (top concentration 10000 nM)",
    "System": "P12-ICHIKAWA",
    "Assay Endpoint": "selective drug sensitivity score",
    "Reported Result": 0.68
  },
  {
    "Molecule": "CC[C@@H]1C(=O)N(C)c2cnc(Nc3ccc(C(=O)NC4CCN(C)CC4)cc3OC)nc2N1C1CCCC1 [BI-2536] (top concentration 1000 nM)",
    "System": "P12-ICHIKAWA",
    "Assay Endpoint": "selective drug sensitivity score",
    "Reported Result": 20.9
  },
  {
    "Molecule": "CN(C)Cc1ccc(S(=O)(=O)n2ccc(/C=C/C(=O)NO)c2)cc1 [Resminostat] (top concentration 10000 nM)",
    "System": "P12-ICHIKAWA",
    "Assay Endpoint": "selective drug sensitivity score",
    "Reported Result": 7.34
  }
]
